Method description: Luminescence activity assay of purified Gaussia luciferase mutants on coelenterazine
Assay type: biochemical
Design: key: ratio of mutant luminescence intensity to wild-type Gaussia luciferase
Assay context: Substrate CTZ (Table 16)
Quantity: Activity of mutant relative to wild-type Gaussia luciferase without the signal peptide

| Molecule | Result number |
| --- | --- |
| E102K S103T A104G E110G V138D I172: Gaussia luciferase mutant (protein) MGVKVLFALICIAVAEAKPTENNEDFNIVAVASNFATTDLDADRGKLPGKKLPLEVLKEMEANARKAGCTRGCLICLSHIKCTPKMKKFIPGRCHTYEGDKKTGQGGIGGAIVDIPEIPGFKDLEPMEQFIAQVDLCDDCTTGCLKGLANVQCSDLLKKWLPQRCATFASKIQGQVDKIKGAGGD | 0.622 |
| K66N P84A E102K S103I E110G L124M V138E: Gaussia luciferase mutant (protein, SIGNAL (1)..(17), Gaussia luciferase mutant) MGVKVLFALICIAVAEAKPTENNEDFNIVAVASNFATTDLDADRGKLPGKKLPLEVLKEMEANARNAGCTRGCLICLSHIKCTAKMKKFIPGRCHTYEGDKKIAQGGIGGAIVDIPEIPGFKDMEPMEQFIAQVDLCEDCTTGCLKGLANVQCSDLLKKWLPQRCATFASKIQGQVDKIKGAGGD | 0.654 |
| F26I N27D V29D A30G A32E S33G A36T L40S del117-119 D139H: Gaussia luciferase mutant (protein, SIGNAL (1)..(17), Gaussia luciferase mutant) MGVKVLFALICIAVAEAKPTENNEDIDIDGVEGNFTTTDSDADRGKLPGKKLPLEVLKEMEANARKAGCTRGCLICLSHIKCTPKMKKFIPGRCHTYEGDKESAQGGIGEAIVDIPGFKDLEPMEQFIAQVDLCVHCTTGCLKGLANVQCSDLLKKWLPQRCATFASKIQGQVDKIKGAGGD | 0.043 |
